These measurements were taken from ChEMBL document CHEMBL4177763.

In this section, each of the molecules is paired with its reported EC50.
- target.under.test: UniProtKB P41968
- Sequence (P41968 whole entry): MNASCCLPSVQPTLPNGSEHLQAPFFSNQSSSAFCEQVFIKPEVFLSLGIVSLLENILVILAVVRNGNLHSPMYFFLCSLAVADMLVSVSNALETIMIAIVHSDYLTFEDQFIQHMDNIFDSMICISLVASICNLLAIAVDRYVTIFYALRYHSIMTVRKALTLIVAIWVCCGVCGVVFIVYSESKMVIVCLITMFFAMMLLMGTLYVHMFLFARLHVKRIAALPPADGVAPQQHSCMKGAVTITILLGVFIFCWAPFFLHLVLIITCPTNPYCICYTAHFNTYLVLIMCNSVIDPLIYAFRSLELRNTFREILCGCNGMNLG
- assay.protocol: Agonist activity at human MC3R expressed in HEK293 cells assessed as induction of intracellular cAMP accumulation after 3 mins
- Assay type: functional, cell-based
- conditions: read-out: EC50
Bridge positions count the residues as written; N and C are the ends. Square brackets hold non-standard residues; d marks the D form. Peptide text beside a SMILES is read from it. Aib = CC(C)(N)C(=O)O
quantity.name: EC50 (nM)

N=C(N)NCCC[C@@H]1NC(=O)[C@@H](Cc2ccc3ccccc3c2)NC(=O)[C@H](Cc2c[nH]cn2)NC(=O)C2(CCC2)NC(=O)C[C@@H](C(N)=O)NC(=O)[C@H](Cc2c[nH]c3ccccc23)NC1=O :: 3.2
N=C(N)NCCC[C@@H]1NC(=O)[C@@H](Cc2ccccc2)NC(=O)[C@H](Cc2c[nH]cn2)NC(=O)C2(CCC2)NC(=O)C[C@@H](C(N)=O)NC(=O)[C@H](Cc2c[nH]c3ccccc23)NC1=O :: 276
CC1(C)NC(=O)C[C@@H](C(N)=O)NC(=O)[C@H](Cc2c[nH]c3ccccc23)NC(=O)[C@H](CCCNC(=N)N)NC(=O)[C@@H](Cc2ccccc2)NC(=O)[C@H](Cc2c[nH]cn2)NC1=O ([Aib]H[dF]RWD-NH2; lactam N-6) :: 76
